Assay: chemical genetic growth profiling, strain panel (AID 1159580);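 also: tested at 20 µM; growth read once vehicle control cultures reached saturation at 30 °C; 1 = growth at the plate median or of vehicle wells; lower values mean less growth of the strain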
Conditions: S. cerevisiae deletion strains, growth OD, locus YML094W, strain GIM5
The whole screen tested about 5,500 compounds, of which about 2,000 (36%) were called active. Roughly 18% stayed inconclusive and do not appear here. Rule as the data show it: active = normalized growth mostly below about 0.91 (no sharp cut-off); inconclusive = no clear call, values can overlap the other calls; inactive = mostly above about 0.92. This is one part of the list.
Pick one and only one: label 1 (active), label 0 (inactive)

Reference set (5 entries):
# chemical.string, label.value
rows = [
    ("O=C(NCCSCc1ccco1)Nc1cc(Cl)cc(Cl)c1", "label 0"),
    ("CC(=O)c1sc(SCc2ccc(Cl)cc2)c2c1CC(C)(C)CC2=O", "label 0"),
    ("CN1CCN(C=Nc2ncc(C(F)(F)F)cc2Cl)CC1", "label 0"),
    ("NC(=NS(=O)(=O)c1cc(C(F)(F)F)cc(C(F)(F)F)c1)c1cccs1", "label 0"),
    ("COc1ccc(-c2ccnc(SCC(=O)NCCSCc3ccco3)n2)cc1", "label 0"),
]

Ask: Lab log entry: Clc1cc(Cl)c(Cl)c(-n2cccc2)c1Cl — outcome as called in the assay?
Reply: label 1

Ask: # outcome recorded in this test, key = Cc1oc(S(=O)(=O)N(C)C)cc1C(=O)O
Reply: label 0

Ask: Assay outcome for CN1C2CCC1CC(=NO)C2 : what was it?
Reply: label 0

Ask: Name the outcome recorded for Cc1cc(C)c(I)c(C)c1 in the assay.
Reply: label 0

---

Assay: chemical genetic growth profiling, strain panel (AID 1159580);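 also: tested at 20 µM; growth read once vehicle control cultures reached saturation at 30 °C; 1 = growth at the plate median or of vehicle wells; lower values mean less growth of the strain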
Conditions: S. cerevisiae deletion strains, growth OD, locus YKL068W, stronger effect = lower value
Among all 5,500 compounds or so, about 2,000 (36%) were called active. Not shown: some 18% with an inconclusive outcome. The list shows a part of the results.
Reported normalized growth values for a set of compounds
Answer with a bare number; do not write a unit.

Worked cases, answers included:
# chemical.string, normalized growth
measured = [
    ("Cc1occc(=O)c1/C=C/O", 1.01),
    ("Cc1occc(=O)c1O", 1),
]

Ask: For the compound CCCc1occc(=O)c1/C=C/O , report normalized growth.
Reply: 0.972

---

Experiment: chemical genetic growth profiling, strain panel (AID 1159580);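 also: tested at 20 µM; growth read once vehicle control cultures reached saturation at 30 °C; 1 = growth at the plate median or of vehicle wells; lower values mean less growth of the strain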
Details: S. cerevisiae deletion strains, growth OD, locus YPL209C, strain IPL1, stronger effect = lower value
About 2,000 (36%) of roughly 5,500 compounds were called active. Inconclusive results (about 18%) are left out. The list shows a part of the results.
Each entry below carries its recorded normalized growth.
# answer = number (no unit)

# chemical.string, val
rows = [
    ("CC(=O)c1sc(SCCS(=O)(=O)c2ccc(C)cc2)c2c1CC(C)(C)CC2=O", 0.986),
    ("N#CC(C#N)=C/C=C(/Sc1ccc(F)c(Cl)c1)c1ccc(Cl)cc1", 0.954),
    ("CC(C)c1ccc(NC(=S)NC(=O)c2ccccc2)cc1", 0.954),
]

Ask: Return normalized growth (reported value) for this molecule: O=C(NCCSCc1ccco1)Nc1cc(Cl)cc(Cl)c1
Reply: 0.958

Ask: Identify normalized growth associated with the molecule O=[N+]([O-])/C=C/c1ccc(F)cc1
Reply: 0.0882

Ask: Identify normalized growth associated with the molecule CCCc1c(C(=O)Sc2ccccn2)cnn1-c1ccc(Cl)cc1
Reply: 0.952

Ask: For the molecule O=C(Nc1ccc(C(F)(F)F)cc1)N1CCN(c2ccnc3cc(Cl)ccc23)CC1 , give its reported normalized growth.
Reply: 0.984

Ask: Please report normalized growth for the following molecule: S=C(N/N=C\c1ccc(Cl)cc1)N/N=C\c1ccc(Cl)cc1
Reply: 0.967

Ask: Fill in reported normalized growth for this entry: CCCc1c(C(=O)NC2Cc3ccccc3C2)cnn1-c1ccccc1
Reply: 0.994

Ask: State its normalized growth: CSc1ccc(/C=C(\C)[N+](=O)[O-])cc1
Reply: 0.0829

Ask: Consider the molecule O=C(NCCSCc1cccc(C(F)(F)F)c1)Nc1cccc(C(F)(F)F)c1 and give its recorded normalized growth.
Reply: 0.997

Ask: Answer with the recorded normalized growth for the molecule listed here: Cc1cccc(Cl)c1/C=N\NC(N)=S
Reply: 0.912
